- Test system: Saccharomyces cerevisiae BY4741 SeMeCo community
- ASSAY_OVERVIEW: z-score of prototroph abundance vs DMSO median; higher = larger share of this subpopulation than in DMSO controls
- CONDITION_DETAILS: 10 µM; 24 h; SM minimal medium; subpopulation (auxotrophy): Prototroph
PROPERTY: z-score of prototroph abundance

COMPOUND | MEAS_VALUE
Cc1nc(=O)c2cc(CN(C)c3ccc(C(=O)N[C@@H](CCC(=O)O)C(=O)O)s3)ccc2[nH]1 | 1.91
CN1C(C(=O)Nc2ccccn2)=C(O)c2ccccc2S1(=O)=O | 1.29
CC[C@H](c1ccc(O)cc1)[C@@H](CC)c1ccc(O)cc1 | 1.27
O=C1C(=O)c2ccccc2C(O)=C1C1CCC(c2ccc(Cl)cc2)CC1 (stereo unspecified) | -0.82
NC[C@H]1O[C@H](O[C@H]2[C@H](O)[C@@H](O[C@H]3O[C@H](CO)[C@@H](O)[C@H](N)[C@H]3O)[C@H](N)C[C@@H]2N)[C@H](N)C[C@@H]1O | 0.02
O=C(O)c1cc(O)c2c(c1)[C@H]([C@H]1c3cc(C(=O)O)cc(O)c3C(=O)c3c(O[C@@H]4O[C@H](CO)[C@@H](O)[C@H](O)[C@H]4O)cccc31)c1cccc(O[C@@H]3O[C@H](CO)[C@@H](O)[C@H](O)[C@H]3O)c1C2=O [Sennoside A] | 0.91
